# System: Escherichia coli
# ASSAY PROTOCOL: Antibacterial activity against wild type Escherichia coli K12 after 12 hrs by microdilution method
# Type: functional, organism-based
# PARTICULARS: K12, 12 h
ENDPOINT NAME: IC50 (nM)

SMILES: O=C(O)CCCC(=O)Oc1cc(Cl)ccc1Oc1ccc(Cl)cc1Cl
RESULT UNITS: nM
OBSERVED VALUE: 330
--
SMILES: NC(=O)CCC(=O)Oc1cc(Cl)ccc1Oc1ccc(Cl)cc1Cl
RESULT UNITS: nM
OBSERVED VALUE: 220
--
SMILES: CC(=O)CCC(=O)Oc1cc(Cl)ccc1Oc1ccc(Cl)cc1Cl
RESULT UNITS: nM
OBSERVED VALUE: 77000
--
SMILES: CCCCC(=O)Oc1cc(Cl)ccc1Oc1ccc(Cl)cc1Cl
RESULT UNITS: nM
OBSERVED VALUE: 140000
--
SMILES: Oc1cc(Cl)ccc1Oc1ccc(Cl)cc1Cl
RESULT UNITS: nM
OBSERVED VALUE: 750
--
SMILES: O=C(Oc1cc(Cl)ccc1Oc1ccc(Cl)cc1Cl)c1cccnc1
RESULT UNITS: nM
OBSERVED VALUE: 3100
--
SMILES: C[N+](C)(C)CCOC(=O)CCCC(=O)Oc1cc(Cl)ccc1Oc1ccc(Cl)cc1Cl.[Cl-]
RESULT UNITS: nM
OBSERVED VALUE: 420

1 = CN(C)CCOC(=O)CCCC(=O)Oc1cc(Cl)ccc1Oc1ccc(Cl)cc1Cl
2 = C[n+]1cccc(C(=O)Oc2cc(Cl)ccc2Oc2ccc(Cl)cc2Cl)c1.[Cl-]
Pick the one with the larger IC50: 1 vs 2 Field: selected label. Fill in the label of the entry you choose.
2
(2: 3600 nM, 1: 260 nM)

---

# Tested on: Escherichia coli
# ASSAY PROTOCOL: Stability assessed as half life of prodrug disappearance in Escherichia coli culture
# Assay type: ADME, organism-based
# PARTICULARS: in vivo
ENDPOINT NAME: t1/2 (min)

1 = CN(C)CCOC(=O)CCCC(=O)Oc1cc(Cl)ccc1Oc1ccc(Cl)cc1Cl
2 = NC(=O)CCC(=O)Oc1cc(Cl)ccc1Oc1ccc(Cl)cc1Cl
Pick the one with the larger t1/2: 1 vs 2 Field: selected label. Fill in the label of the entry you choose.
2
(2: 12 min, 1: 6 min)

---

# Tested on: Escherichia coli
# ASSAY PROTOCOL: Antibacterial activity against wild type Escherichia coli K12 after 12 hrs by microdilution method
# Assay type: functional, organism-based
# PARTICULARS: K12, 12 h
ENDPOINT NAME: MIC (µM)

# example entries with known answers
SMILES: NC(=O)CCC(=O)Oc1cc(Cl)ccc1Oc1ccc(Cl)cc1Cl
STUDY SYSTEM: Escherichia coli
ENDPOINT NAME: MIC
OBSERVED VALUE: 0.6
//
SMILES: Oc1cc(Cl)ccc1Oc1ccc(Cl)cc1Cl
STUDY SYSTEM: Escherichia coli
ENDPOINT NAME: MIC
OBSERVED VALUE: 1

1 = O=C(O)CCCC(=O)Oc1cc(Cl)ccc1Oc1ccc(Cl)cc1Cl
2 = C[n+]1cccc(C(=O)Oc2cc(Cl)ccc2Oc2ccc(Cl)cc2Cl)c1.[Cl-]
Identify the entry with the smaller MIC: 1 or 2 . Field: selected label. Fill in the label of the entry you choose.
1

I = C[N+](C)(C)CCOC(=O)CCCC(=O)Oc1cc(Cl)ccc1Oc1ccc(Cl)cc1Cl.[Cl-]
II = CN(C)CCOC(=O)CCCC(=O)Oc1cc(Cl)ccc1Oc1ccc(Cl)cc1Cl
Pick the one with the larger MIC: I vs II Field: selected label. Fill in the label of the entry you choose.
I
(I: 1 µM, II: 0.55 µM)
